Hello, the source for this data is patent US20200199204A1, in case you need it.

neutralization IC50 values for the binders below.
- STUDY_SYSTEM: HIV-1 Env of C1080.c3 (HIV-1)
- TEST_DESCRIPTION: cell-based or functional assay

>>> result_value("CAP256-VRC26.02 (antibody, V domains shown) VH: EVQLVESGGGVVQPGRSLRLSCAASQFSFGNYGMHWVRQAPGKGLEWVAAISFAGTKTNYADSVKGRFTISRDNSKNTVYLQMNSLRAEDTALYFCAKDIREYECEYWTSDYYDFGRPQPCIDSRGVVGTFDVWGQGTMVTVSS VL: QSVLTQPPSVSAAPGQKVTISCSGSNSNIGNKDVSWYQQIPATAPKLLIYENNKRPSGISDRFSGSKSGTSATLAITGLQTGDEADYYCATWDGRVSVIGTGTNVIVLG")
"> 50 µg/mL"

Continue with the binder presented below.
input: Tell me its neutralization IC50 given CAP256-VRC26.05 (antibody, V domains shown) VH: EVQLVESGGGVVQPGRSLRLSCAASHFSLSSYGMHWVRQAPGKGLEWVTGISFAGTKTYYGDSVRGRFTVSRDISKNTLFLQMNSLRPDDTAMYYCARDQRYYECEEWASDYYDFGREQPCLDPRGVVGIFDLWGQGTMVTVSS VL: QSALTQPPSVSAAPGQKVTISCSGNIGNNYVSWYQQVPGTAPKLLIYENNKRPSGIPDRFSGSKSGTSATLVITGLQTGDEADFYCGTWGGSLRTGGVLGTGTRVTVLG as the entry.
output: > 50 µg/mL
